What Activity was measured for each of the following?
Test system: SK-OV-3
testDetails: Cell cycle arrest in human SKOV3 cells assessed as accumulation in G2/M phase at 100 nM after 24 hrs by FACS analysis (reference value: 21.8%)
Assay type: functional
Answers are plain numbers, in %.

Here are 3 compounds together with their reported answers.
1. CC(C)[C@H](c1nc2cc(Cl)ccc2c(=O)n1Cc1ccccc1)N(CCCN)C(=O)c1ccc(F)cc1
58.5
2. CC(C)[C@@H](c1nc2cc(Cl)ccc2c(=O)n1Cc1ccccc1)N(CCCN)C(=O)c1ccc(F)cc1
22.5
3. Cc1ccc(C(=O)N(CCCN)[C@@H](c2nc3cc(Cl)ccc3c(=O)n2Cc2ccccc2)C(C)C)cc1 [ISPINESIB]
51.3

Find the recorded Activity belonging to "Cc1ccc(C(=O)N(CCCN)[C@H](c2nc3cc(Cl)ccc3c(=O)n2Cc2ccccc2)C(C)C)cc1" and report it.
14.5
